These measurements were taken from the PETadex activity labels (doi:10.1038/s41467-023-40233-w).

- Substrate: pcPET (post-consumer)
- experiment: Proxy for plastic degradation [Released monomer concentration (HPLC/LC-MS) (TPA+MHET+BHET)]
- condition-details: pH 9; 40 °C; 24 h
Exercise: state measured Proxy for plastic degradation for each of the proteins provided.
Field format: number, assumed µM, no unit text.

Proxy for plastic degradation for unnamed (protein) MLSFLRSTGRPERRRASLPALLLFTAALVASGLTAAPAAQAADNPYQRGPDPTNASIEAATGPFAVGTQPIVGASGFGGGQIYYPTDTSQTYGAVVIVPGFISVWAQLNWLGPRLASQGFVVIGIETSVITDLPDPRGDQALAALDWATTRSPVASRIDRTRLAAAGWSMGGGGLRRAACQRPSLKAIVGMAPWNGERNWSCVTVPTLFFGGSSDAVASPNDHAKPFYNSITRAEKDYIELCNADHFFPTSANTTMAKYFISWLKRWVDNDTRYTQFLCPGPSTGLFAPVCASMNTCPF is 948

Proxy for plastic degradation for unnamed (protein) MLSFLRSTGRPERRRASLPALLLFTAALVASGLTAAPAAQAADNPYQRGPDPTNASIEAATGPFAVGTQPIVGASGFGGGQIYYPTDTSQTYGAVVIVPGFISVWAQLNWLGPRLASQGFVVIGIETSVITDLPDPRGDQALAALDWATTRSPVASRIDRTRLAAAGWSMGGGGLRRAALQRPSLKAIVGMAPWNLERNWSAVTVPTLFFGGSSDAVASPNDHAKPFYNSITRAEKDYIELRNADHFFPTSANTTMAKYFISWLKRWVDNDTRYTQFLCPGPSTGLFAPVSASMNTCPF is 520

Proxy for plastic degradation for unnamed (protein) MLSFLRSTGRPERRRASLPALLLFTAALVASGLTAAPAAQAADNPYQRGPDPTNASIEAATGPFAVGTQPIVGASGFGGGQIYYPTDTSQTYGAVVIVPGFISVWAQLNWLGPRLASQGFVVIGIETSVITDLPDPRGDQALAALDWATTRSPVASRIDRTRLAAAGWSMGGGGLRRAALQRPSLKAIVGMAPWNGERNWSAVTVPTLFFGGSSDAVASPNDHAKPFYNSITRAEKDYIELRNADHFFPTSNNTTMAKYFISWLKRWVDNDTRYTQFLCPGPSTGLFAPVSASMNTCPF is 530

Proxy for plastic degradation for unnamed (protein) MLSFLRSTGRPERRRASLPALLLFTAALVASGLTAAPAAQAADNPYQRGPDPTNASIEAATGPFAVGTQPIVGASGFGGGQIYYPTDTSQTYGAVVIVPGFISVWAQLNWLGPRLASQGFVVIGIETSVITDLPDPRGDQALAALDWATTRSPVASRIDRTRLAAAGWSMGGGGLRRAALQRPSLKAIVGMAPWNGERNWSAVTVPTLFFGGSSDAVASPNDHAKPFYNSITRAEKDYIELRNADHFFPTSANTTMAKYFISWLKRWVDNDTRYRQFLCPGPSTGLFAPVSASMNTCPF is 270
